Assay Overview: qHTS RealTime-Glo MT Cell Viability Assay in HEK293 cells - 16 hour (AID 1224872); further: potency means the concentration at half of the fitted maximal effect; nearly all actives have a fitted effect of over 50% in size
Conditions: RealTime-Glo luminescence; series mostly up to 76.8 µM
Results filed as inconclusive are left out. Calls of active or inactive are those of the source. The call rests on the fitted dose curve; in most records, active means well fitted cell-killing curve with a large enough effect in the repeat runs; inconclusive means weak or mixed curves, or effect the other way; inactive means flat fitted curve, though single readings scatter.

Molecule	Potency
CCOc1cc([N+](=O)[O-])c(OCC)cc1N1CCOCC1	19.5 µM (active)
NS(=O)(=O)c1cc2c(cc1Cl)CN(C1CCCCC1)C2=O	10.7 µM (active)
O=C(OCC(O)CO)c1ccccc1Nc1ccnc2c(C(F)(F)F)cccc12 (centres undefined)	5.35 µM (active)
CCN(CC)CC(=O)Nc1c(C)cccc1C	10.7 µM (active)

====

Assay Overview: qHTS assay to identify small molecule that activate the aryl hydrocarbon receptor (AhR) signaling pathway - cell viability counter screen (AID 743086); further: nearly all actives have a fitted effect of over 45% in size
Conditions: HepG2-AhR-luc viability, CellTiter-Fluor, 24 h; series mostly up to 70.3 µM
Results filed as inconclusive are left out. The source made the active and inactive calls. Calls follow the shape of the dose curve; as a rule, active = well fitted cell-killing curve with a large enough effect in the repeat runs; inconclusive = weak or mixed curves, or effect the other way; inactive = flat fitted curve, though single readings scatter.
Outcomes: active, inactive

Compound	Qualitative Label
Cc1cccc2nccnc12	inactive
CCC(C)(CCC(C)C)C(=O)O (stereo not drawn)	inactive
CC(CN)CC(C)(C)CCN (stereo not drawn)	inactive
CCN1CCc2nc(N)oc2CC1	inactive
CC(=O)Nc1cccc(C)c1	inactive
CNS(=O)(=O)CCc1ccc2[nH]cc(C3CCN(C)CC3)c2c1	inactive
CCOC(=O)c1ncn2c1CN(C)C(=O)c1cc(F)ccc1-2	inactive
COc1ccc2c(c1OC)C(=O)O[C@@H]2[C@H]1c2c(cc3c(c2OC)OCO3)CCN1C	active
Cc1ccccc1OCC(O)CO (stereo not drawn)	inactive
CC1COc2ccccc2N1 (stereo not drawn)	inactive
Brc1ccc(-c2ccccc2)cc1	inactive
CCCCOCCOC(=O)COc1nc(Cl)c(Cl)cc1Cl	inactive
COc1ccc(S(=O)(=O)N2c3ccc(Cl)cc3[C@@](O)(c3ccccc3Cl)[C@H]2C(=O)N2CCC[C@@H]2C(N)=O)cc1OC	inactive

====

In this section, each of the molecules is paired with its reported max activation.
Measured Target: Nuclear receptor subfamily 1 group I member 2 (Rattus norvegicus)
Assay Overview: Rat pregnane X receptor (rPXR) activation by small molecules, qHTS assay (AID 1346983); further: on the % scale 0 is the no-effect control and ±100 the full control effect; nearly all actives have a fitted effect of over 20% in size
Conditions: rPXR luciferase reporter cells, One-Glo luminescence, 24 h; hits give high values
Results filed as inconclusive are left out.

Molecule	max activation [%]
Oc1cn2c(n1)Nc1ccc(Cl)c(Cl)c1C2	0.479
O=C(NCC(O)CO)c1c(I)c(C(=O)NCC(O)CO)c(I)c(N(CCO)C(=O)CO)c1I (stereo unspecified)	-4.62
CC(=O)NCc1c(I)c(NC(C)=O)c(I)c(C(=O)O)c1I	-0.535
COc1cc(C(=S)N2CCOCC2)cc(OC)c1OC	-2.22
O=C(CCN1CCN(CCO)CC1)N1c2ccccc2Sc2ccc(C(F)(F)F)cc21	-2.18
Cc1cccc(C)c1NC(=O)c1ccccc1C(=O)O	-1.88

====

Assay Overview: qHTS assay for small molecule agonists of the antioxidant response element (ARE) signaling pathway (AID 743202); on activation: on the % scale 0 is the no-effect control and ±100 the full control effect
Conditions: HepG2 ARE-bla reporter, beta-lactamase FRET, 16 h; series mostly up to 73.3 µM
Results filed as inconclusive are left out. The source made the active and inactive calls. Calls come from the whole dose curve; as a rule, active = well fitted activation curve with a large enough effect in the signal ratio in the repeat runs (not every such curve was filed as active); inconclusive = weak or mixed curves, or effect the other way; inactive = no such curve, though single readings can be large or run the other way; the % refers to the signal ratio.
Outcomes: 1 (active), 0 (inactive)

Compound	Qualitative Label
N[C@@H](CCC(=O)N[C@@H](CS)C(=O)NCC(=O)O)C(=O)O	0
CCCN1C[C@H](CSC)C[C@@H]2c3cccc4[nH]cc(c34)C[C@H]21	0
N[C@@H](COP(=O)(O)O)C(=O)O	0
CC(C)OC(=O)CCCCC(=O)OC(C)C	1
CC(C)=O	0
COc1nccnc1NS(=O)(=O)c1ccc(N)cc1	0
CC(C)(C)c1n[nH]c(=S)n(N)c1=O	0
OCCC(F)(F)C(F)(F)C(F)(F)C(F)(F)C(F)(F)C(F)(F)C(F)(F)C(F)(F)F	0
O=C(OCC1(COC(=O)c2cccnc2)CCCC(COC(=O)c2cccnc2)(COC(=O)c2cccnc2)C1O)c1cccnc1	0
CC1=CCC(C(C)C)=CC1	0
COC(=O)c1ccccc1C(=O)c1ccc(OCCN2CCCCC2)cc1	0
BrCCCCCBr	0
O=C(O)CCSSCCC(=O)O	0
CCO[Si](CCCS)(OCC)OCC	0
NCCS	0
O=C(OCC(COC(=O)c1cccnc1)(COC(=O)c1cccnc1)COC(=O)c1cccnc1)c1cccnc1	0
O=C(OCC(O)CO)c1ccccc1Nc1ccnc2c(C(F)(F)F)cccc12 (stereo not given)	1
CCOC(=O)c1ccc(OC(=O)CCCCCN=C(N)N)cc1	0
CCc1ccc(C=O)cc1	0
Nc1cccc(O)c1	0
CC(C)CC(C)CC(C)CC(C)COC(=O)c1ccccc1C(=O)OCC(C)CC(C)CC(C)CC(C)C (stereo not given)	0
NS(=O)(=O)c1ccc(NC(=O)CCC(=O)O)cc1	0
Oc1ccccc1-c1nnco1	0
O=C(c1ccc(O)cc1)c1ccc(O)c(O)c1O	0
Cc1nc2n(c(=O)c1CCN1CCC(c3noc4cc(F)ccc34)CC1)CCC[C@H]2O	0
CN(CCOc1ccc(NS(C)(=O)=O)cc1)CCc1ccc(NS(C)(=O)=O)cc1	0
O=C1c2cccc3c2[C@H](CCC3)CN1[C@@H]1CN2CCC1CC2	0
COC(=O)[C@@H]1[C@H]2C[C@H]3c4[nH]c5ccccc5c4CCN3C[C@@H]2CC[C@@H]1O	0
Cc1cc(Cl)c(C)cc1Cl	0
CCCCCCCC/C=C\CCCCCCCC(=O)OCCCC	0
CC(C)CCCC(C)(C)O	0
O=C(O)C(=O)Cc1ccccc1	1
C[Si](C)(C)C	0
O=C(Nc1ccc(Cl)c(Cl)c1)C1CC1	1
Nc1ccc([N+](=O)[O-])c(N)c1	0
CCOCCOCCOCC	0
C=COCCOCCOCCOC=C	0
Cc1ccc2ccc(Cl)cc2n1	0
Cc1ccc(C=O)cc1C	0
Cc1ccc2c(c1)OCC(=O)CO2	0
CCCCCCCCCC(C)=O	0
COCCOCCOCCOCCOCCO	0
COc1cc(C(=S)N2CCOCC2)cc(OC)c1OC	0
O=C(CS(=O)Cc1ccco1)NC/C=C\COc1cc(CN2CCCCC2)ccn1 (stereo not given)	0
CC(=O)NCc1c(I)c(NC(C)=O)c(I)c(C(=O)O)c1I	0
CCCCCCN	0
CC(=O)OC(C)OC(=O)C(C)c1ccc(-c2ccccc2)c(F)c1 (stereo not given)	0
O=C1c2ccccc2C(=O)C1c1ccccc1	0
COc1cc2c(cc1OC)[C@@H]1CC(=O)[C@@H](CC(C)C)CN1CC2	0
O=S(=O)(O)c1ccc2cc(O)c(S(=O)(=O)O)cc2c1	0
O=C(O)c1cc(Br)c(O)c(Br)c1	0
C=CC(OCC)OCC	1
CCCOC(OCCC)OCCC	0
CC(C)NCC(O)COc1cccc2[nH]ccc12 (stereo not given)	0
CC(COC(C)(C)C)OCCCO (stereo not given)	0

====

Assay Overview: qHTS assay to test for compound auto fluorescence at 460 nm (blue) in HepG2 cells (AID 720687); further: on the % scale 0 is the no-effect control and ±100 the full control effect
Conditions: autofluorescence 405/460 nm, 1 h; series mostly up to 91.3 µM
Calls of active or inactive are those of the source. The call rests on the fitted dose curve; in most records, active means well fitted curve in the direction sought with a large enough effect in the repeat runs; inconclusive means weak or mixed curves; inactive means flat fitted curve, though single readings scatter.

Compound	fluorescence, % of fluorescent control
C[Si](C)=O	-0.132% [at 9.17 µM] (inactive)
COCCOC(=O)C1=C(C)NC(C)=C(C(=O)OC(C)C)C1c1cccc([N+](=O)[O-])c1 (stereo not given)	inactive
Cc1cc(NC(=O)C2=C(O)c3ccccc3S(=O)(=O)N2C)no1	inactive
CC(=O)N[C@@H](CCC(=O)O)C(=O)O	inactive
CN(C)C(=O)CNC(=O)Cc1ccccc1	inactive

====

Assay Overview: qHTS assay to identify small molecule agonists of the TGF-beta/Smad signaling pathway - cell viability counter screen (AID 1346829); further: top concentration of the series differs between compounds; on the % scale 0 is the no-effect control and ±100 the full control effect; nearly all actives have a fitted effect of over 45% in size
Conditions: SBE-bla HEK293T viability, CellTiter-Glo luminescence, 5 h; series mostly up to 76.8 µM
Records with an inconclusive call do not appear. Activity calls are given as the source filed them. Calls come from the whole dose curve; as a rule, active = well fitted cell-killing curve with a large enough effect in the repeat runs; inconclusive = weak or mixed curves, or effect the other way; inactive = flat fitted curve, though single readings scatter.
Readout: activity change, negative = cytotoxicity

Molecule	Result
CCCOC(=O)C(C)O (configuration not stated)	inactive
O=S(O)(O)=S	1.63% [at 6.97 µM] (inactive)
CC1=C(C(=O)O)N2C(=O)[C@@H](NC(=O)[C@H](N)c3ccc(O)cc3)[C@H]2SC1	inactive
NS(=O)(=O)c1ccc(NC(=O)CCC(=O)O)cc1	inactive
C[C@H](CCC(=O)O)[C@H]1CC[C@H]2[C@@H]3C(=O)C[C@@H]4CC(=O)CC[C@]4(C)[C@H]3CC(=O)[C@]12C	inactive
N[C@@H](CCC(=O)Nc1ccc([N+](=O)[O-])cc1)C(=O)O	inactive
Cc1ccccc1C(=O)Nc1ccc(C(=O)N2CCCC(N(C)C)c3ccccc32)cc1 (configuration not stated)	inactive
COc1cc(NS(=O)(=O)c2ccc(N)cc2)nc(OC)n1	inactive
O=C(/N=N/C(=O)OCc1ccccc1)OCc1ccccc1	inactive
Cc1cccc(C)c1NC(=O)c1ccccc1C(=O)O	inactive
N[C@@H](CCC(=O)N[C@@H](CS)C(=O)NCC(=O)O)C(=O)O	1.41% [at 15.8 µM] (inactive)
CCCCCCCCOS(=O)(=O)O	inactive
